Below is a list of entries, each paired with its recorded relative viability value.
# Tested on: LCLC-97TM1
# assay: relative viability (nuclei count vs DMSO), 5 days (fraction); higher = more cells survive
# assaySetup: first compound 0.04 µM
# respond with the number and nothing more

Recorded relative viability for O=C(O)c1ccc(-c2c[nH]c3ncc(-c4ccccc4)cc23)cc1C1CCCC1 + Cc1cc(Nc2cc(N3CCN(C)CC3)nc(Sc3ccc(NC(=O)C4CC4)cc3)n2)n[nH]1 [Tozasertib] (partner 0.1 µM) , please?
0.338

Further cases:
Recorded relative viability for O=C(O)c1ccc(-c2c[nH]c3ncc(-c4ccccc4)cc23)cc1C1CCCC1 + C[C@]1(O)C[C@@H](c2nc(-c3ccc4ccc(-c5ccccc5)nc4c3)c3c(N)nccn32)C1 [Linsitinib] (partner 1 µM) , please?
0.204

Recorded relative viability for O=C(O)c1ccc(-c2c[nH]c3ncc(-c4ccccc4)cc23)cc1C1CCCC1 + Cc1nc(Nc2ncc(C(=O)Nc3c(C)cccc3Cl)s2)cc(N2CCN(CCO)CC2)n1 [Dasatinib] (partner 0.075 µM) , please?
0.836

---

Below is a list of entries, each paired with its recorded relative viability value.
# Tested on: NCI-H1915
# assay: relative viability (nuclei count vs DMSO), 5 days (fraction); higher = more cells survive
# assaySetup: first compound 0.08 µM

Study these solved cases before continuing.
Recorded relative viability for Oc1nc(-c2ccc(C(F)(F)F)cc2)nc2c1CSCC2 [XAV939] + C[C@]1(O)C[C@@H](c2nc(-c3ccc4ccc(-c5ccccc5)nc4c3)c3c(N)nccn32)C1 [Linsitinib] (partner 1 µM) , please?
1.13

Recorded relative viability for C=C1C(=O)O[C@@H](CCCCCCCC)[C@@H]1C(=O)O [C-75] + N=C(N)NC(=N)NCCc1ccccc1 [Phenformin] (partner 250 µM) , please?
0.361

Recorded relative viability for C=C1C(=O)O[C@@H](CCCCCCCC)[C@@H]1C(=O)O [C-75] + CC(=O)c1c(C)c2cnc(Nc3ccc(N4CCNCC4)cn3)nc2n(C2CCCC2)c1=O [Palbociclib] (partner 0.5 µM) , please?
0.515

Recorded relative viability for C=C1C(=O)O[C@@H](CCCCCCCC)[C@@H]1C(=O)O [C-75] + CCNC(=O)c1noc(-c2cc(C(C)C)c(O)cc2O)c1-c1ccc(CN2CCOCC2)cc1 [Luminespib] (partner 0.01 µM) , please?
0.694

With those in mind, consider the next compound.
Recorded relative viability for C=C1C(=O)O[C@@H](CCCCCCCC)[C@@H]1C(=O)O [C-75] + CS(=O)(=O)CCNCc1ccc(-c2ccc3ncnc(Nc4ccc(OCc5cccc(F)c5)c(Cl)c4)c3c2)o1 [Lapatinib] (partner 2 µM) , please?
0.952

---

# Test system: BEN
# assay: relative viability (nuclei count vs DMSO), 5 days (fraction); higher = more cells survive
# assaySetup: first compound 0.253 µM
Below is a list of entries, each paired with its recorded relative viability value.
# respond with the number and nothing more

Study these solved cases before continuing.
Recorded relative viability for C=C1C(=O)O[C@@H](CCCCCCCC)[C@@H]1C(=O)O [C-75] + COc1cc2c(Oc3ccc(NC(=O)C4(C(=O)Nc5ccc(F)cc5)CC4)cc3F)ccnc2cc1OCCCN1CCOCC1 [Foretinib] (partner 0.25 µM) , please?
0.671

Recorded relative viability for Oc1nc(-c2ccc(C(F)(F)F)cc2)nc2c1CSCC2 [XAV939] + CC1(C)CCC(c2ccc(Cl)cc2)=C(CN2CCN(c3ccc(C(=O)NS(=O)(=O)c4ccc(N[C@H](CCN5CCOCC5)CSc5ccccc5)c(S(=O)(=O)C(F)(F)F)c4)cc3)CC2)C1 [Navitoclax] (partner 0.5 µM) , please?
0.0746

Recorded relative viability for C=C1C(=O)O[C@@H](CCCCCCCC)[C@@H]1C(=O)O [C-75] + Cc1nc(NC(=O)N2CCC[C@H]2C(N)=O)sc1-c1ccnc(C(C)(C)C(F)(F)F)c1 [Alpelisib] (partner 2 µM) , please?
1.15

With those in mind, consider the next molecule.
Recorded relative viability for Oc1nc(-c2ccc(C(F)(F)F)cc2)nc2c1CSCC2 [XAV939] + CS(=O)(=O)CCNCc1ccc(-c2ccc3ncnc(Nc4ccc(OCc5cccc(F)c5)c(Cl)c4)c3c2)o1 [Lapatinib] (partner 2 µM) , please?
0.547

---

# System: NCI-H23
# assay: relative viability (nuclei count vs DMSO), 5 days (fraction); higher = more cells survive
# assaySetup: first compound 0.4 µM
Below is a list of entries, each paired with its recorded relative viability value.
# respond with the number and nothing more

Study these solved cases before continuing.
Provide the documented relative viability with NCI-H23 as the system for O=C(O)c1ccc(-c2c[nH]c3ncc(-c4ccccc4)cc23)cc1C1CCCC1 + CC(=O)c1c(C)c2cnc(Nc3ccc(N4CCNCC4)cn3)nc2n(C2CCCC2)c1=O [Palbociclib] (partner 0.5 µM)
0.483

Provide the documented relative viability with NCI-H23 as the system for O=C(O)c1ccc(-c2c[nH]c3ncc(-c4ccccc4)cc23)cc1C1CCCC1 + CC(=O)Nc1cccc(-n2c(=O)n(C3CC3)c(=O)c3c(Nc4ccc(I)cc4F)n(C)c(=O)c(C)c32)c1 [Trametinib] (partner 0.02 µM)
0.373

Provide the documented relative viability with NCI-H23 as the system for O=C(O)c1ccc(-c2c[nH]c3ncc(-c4ccccc4)cc23)cc1C1CCCC1 + COc1cccc2cc(-c3nc([C@H]4CC[C@H](C(=O)O)CC4)n4ncnc(N)c34)[nH]c12 [OSI-027] (partner 0.5 µM)
0.576

Provide the documented relative viability with NCI-H23 as the system for O=C(O)c1ccc(-c2c[nH]c3ncc(-c4ccccc4)cc23)cc1C1CCCC1 + O=C(c1cc(Cc2n[nH]c(=O)c3ccccc23)ccc1F)N1CCN(C(=O)C2CC2)CC1 [Olaparib] (partner 8 µM)
0.289

Provide the documented relative viability with NCI-H23 as the system for O=C(O)c1ccc(-c2c[nH]c3ncc(-c4ccccc4)cc23)cc1C1CCCC1 + COc1cc2c(Oc3ccc(NC(=O)C4(C(=O)Nc5ccc(F)cc5)CC4)cc3F)ccnc2cc1OCCCN1CCOCC1 [Foretinib] (partner 0.25 µM)
0.939

Provide the documented relative viability with NCI-H23 as the system for O=C(O)c1ccc(-c2c[nH]c3ncc(-c4ccccc4)cc23)cc1C1CCCC1 + N=C(N)NC(=N)NCCc1ccccc1 [Phenformin] (partner 250 µM)
0.814

Further cases:
Provide the documented relative viability with NCI-H23 as the system for O=C(O)c1ccc(-c2c[nH]c3ncc(-c4ccccc4)cc23)cc1C1CCCC1 + CC(C)C[C@H](NC(=O)[C@H](Cc1ccccc1)NC(=O)c1cnccn1)B(O)O [Bortezomib] (partner 0.002 µM)
0.958

---

# Test system: HARA
# assay: relative viability (nuclei count vs DMSO), 5 days (fraction); higher = more cells survive
# assaySetup: first compound 0.8 µM
endpointName: relative viability
# respond with the number and nothing more

Study these solved cases before continuing.
Recorded relative viability for Oc1nc(-c2ccc(C(F)(F)F)cc2)nc2c1CSCC2 [XAV939] + Cc1nc(Nc2ncc(C(=O)Nc3c(C)cccc3Cl)s2)cc(N2CCN(CCO)CC2)n1 [Dasatinib] (partner 0.075 µM) , please?
0.275

Recorded relative viability for Oc1nc(-c2ccc(C(F)(F)F)cc2)nc2c1CSCC2 [XAV939] + CS(=O)(=O)CCNCc1ccc(-c2ccc3ncnc(Nc4ccc(OCc5cccc(F)c5)c(Cl)c4)c3c2)o1 [Lapatinib] (partner 2 µM) , please?
0.402

Recorded relative viability for Oc1nc(-c2ccc(C(F)(F)F)cc2)nc2c1CSCC2 [XAV939] + NC(=O)Nc1cc(-c2cccc(F)c2)sc1C(=O)N[C@H]1CCCNC1 [AZD7762] (partner 0.2 µM) , please?
0.271

With those in mind, consider the next compound.
Recorded relative viability for C=C1C(=O)O[C@@H](CCCCCCCC)[C@@H]1C(=O)O [C-75] + CC1(C)CCC(c2ccc(Cl)cc2)=C(CN2CCN(c3ccc(C(=O)NS(=O)(=O)c4ccc(N[C@H](CCN5CCOCC5)CSc5ccccc5)c(S(=O)(=O)C(F)(F)F)c4)cc3)CC2)C1 [Navitoclax] (partner 0.5 µM) , please?
1.12

---

# Tested on: A549
# assay: relative viability (nuclei count vs DMSO), 5 days (fraction); higher = more cells survive
# assaySetup: first compound 0.01 µM
Below is a list of entries, each paired with its recorded relative viability value.

Recorded relative viability for NC(=O)Nc1cc(-c2cccc(F)c2)sc1C(=O)N[C@H]1CCCNC1 [AZD7762] + CC1(C)CCC(c2ccc(Cl)cc2)=C(CN2CCN(c3ccc(C(=O)NS(=O)(=O)c4ccc(N[C@H](CCN5CCOCC5)CSc5ccccc5)c(S(=O)(=O)C(F)(F)F)c4)cc3)CC2)C1 [Navitoclax] (partner 0.5 µM) , please?
1.18

Recorded relative viability for NC(=O)Nc1cc(-c2cccc(F)c2)sc1C(=O)N[C@H]1CCCNC1 [AZD7762] + C[C@@H](Oc1cc(-c2cnn(C3CCNCC3)c2)cnc1N)c1c(Cl)ccc(F)c1Cl [Crizotinib] (partner 1 µM) , please?
0.795

Recorded relative viability for NC(=O)Nc1cc(-c2cccc(F)c2)sc1C(=O)N[C@H]1CCCNC1 [AZD7762] + COc1cc2c(Oc3ccc(NC(=O)C4(C(=O)Nc5ccc(F)cc5)CC4)cc3F)ccnc2cc1OCCCN1CCOCC1 [Foretinib] (partner 0.25 µM) , please?
1.02

With those in mind, consider the next compound.
Recorded relative viability for NC(=O)Nc1cc(-c2cccc(F)c2)sc1C(=O)N[C@H]1CCCNC1 [AZD7762] + CS(=O)(=O)CCNCc1ccc(-c2ccc3ncnc(Nc4ccc(OCc5cccc(F)c5)c(Cl)c4)c3c2)o1 [Lapatinib] (partner 2 µM) , please?
1.12
